target: UniProtKB P06401; assay: Progesterone receptor-antagonistic action in stably transfected SK-N-MC cells with MMTV-LUC reporter (PR-B); conditions: antagonistic potency against 0.1 nmol/l promegestone, 24 hours, luciferase
Sequence (P06401 whole entry): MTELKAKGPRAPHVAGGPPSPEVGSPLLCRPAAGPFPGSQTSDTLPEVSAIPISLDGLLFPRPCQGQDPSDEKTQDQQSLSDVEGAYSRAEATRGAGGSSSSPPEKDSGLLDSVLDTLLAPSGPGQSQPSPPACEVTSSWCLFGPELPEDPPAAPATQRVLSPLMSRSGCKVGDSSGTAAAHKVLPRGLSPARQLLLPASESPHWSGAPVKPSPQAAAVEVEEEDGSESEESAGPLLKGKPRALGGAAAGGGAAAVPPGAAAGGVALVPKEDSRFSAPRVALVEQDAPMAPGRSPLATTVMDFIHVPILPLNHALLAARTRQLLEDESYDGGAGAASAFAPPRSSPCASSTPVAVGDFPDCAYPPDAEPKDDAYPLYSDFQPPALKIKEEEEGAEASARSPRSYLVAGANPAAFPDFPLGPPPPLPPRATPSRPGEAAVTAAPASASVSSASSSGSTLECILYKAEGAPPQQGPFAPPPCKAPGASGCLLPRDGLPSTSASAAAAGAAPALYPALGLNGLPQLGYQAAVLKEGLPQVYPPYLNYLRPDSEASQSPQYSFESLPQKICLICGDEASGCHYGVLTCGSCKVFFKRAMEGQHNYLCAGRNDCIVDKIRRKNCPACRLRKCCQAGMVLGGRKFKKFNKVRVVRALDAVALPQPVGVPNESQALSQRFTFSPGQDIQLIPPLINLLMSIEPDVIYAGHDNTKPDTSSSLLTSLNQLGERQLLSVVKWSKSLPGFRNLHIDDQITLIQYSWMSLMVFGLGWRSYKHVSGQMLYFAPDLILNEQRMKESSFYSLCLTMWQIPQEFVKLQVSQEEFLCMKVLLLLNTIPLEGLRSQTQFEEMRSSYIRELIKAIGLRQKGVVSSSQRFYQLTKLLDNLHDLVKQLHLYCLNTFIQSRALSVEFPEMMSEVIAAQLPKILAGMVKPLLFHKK
Observable: IC50 (nM)

Example entries and their recorded answers appear below.
# lookup: IC50 of C[C@]12C[C@H](c3ccc(/C=C/CNC(=O)Nc4ccc(Cl)cc4)cc3)C3=C4CCC(=O)C=C4CC[C@H]3[C@@H]1CC[C@@]2(O)C(F)(F)C(F)(F)F
0.2

Try this molecule next: C[C@]12C[C@H](c3ccc(/C=C/c4ccc(S(C)(=O)=O)cc4)cc3)C3=C4CCC(=O)C=C4CC[C@H]3[C@@H]1CC[C@@]2(O)C(F)(F)C(F)(F)F
0.01

Try this molecule next: CCOC(=O)CNC(=O)NC/C=C/c1ccc([C@H]2C[C@@]3(C)C(CC[C@@]3(O)C(F)(F)C(F)(F)F)C3CCC4=CC(=O)CCC4=C32)cc1 (some centres unmarked)
0.1

Try this molecule next: CC(C)(C)c1ccc(NC(=O)NC/C=C/c2ccc([C@H]3C[C@@]4(C)C(CC[C@@]4(O)C(F)(F)C(F)(F)F)C4CCC5=CC(=O)CCC5=C43)cc2)cc1 (some centres unmarked)
0.3

Try this molecule next: C[C@]12C[C@H](c3cccc(/C=C/c4cccnc4)c3)C3=C4CCC(=O)C=C4CC[C@H]3[C@@H]1CC[C@@]2(O)C(F)(F)C(F)(F)F
1

a: C[C@]12C[C@H](c3ccc(/C=C/CNC(=O)NCc4ccccc4)cc3)C3=C4CCC(=O)C=C4CC[C@H]3[C@@H]1CC[C@@]2(O)C(F)(F)C(F)(F)F
b: C[C@]12C[C@H](c3ccc(/C=C/CNC(=O)NCC(=O)O)cc3)C3=C4CCC(=O)C=C4CCC3C1CC[C@@]2(O)C(F)(F)C(F)(F)F (some centres unmarked)
c: C[C@]12C[C@H](c3cccc(/C=C/c4ccccn4)c3)C3=C4CCC(=O)C=C4CC[C@H]3[C@@H]1CC[C@@]2(O)C(F)(F)C(F)(F)F
With regard to IC50, arrange the entries in ascending order, please. In plain terms: list the labels in the order you were asked to.
a, c, b
(a: 0.09 nM, c: 1 nM, b: 2 nM)
